- METHOD: in vivo
- Set-up: species or system mouse
- RUN_PARAMETERS: female, CD1, mouse, in vivo, unbound brain/plasma, Day 4; read-out: Kpu,u (Cb/Cp)
MEASUREMENT_TYPE: Kp

Prompt: # return recorded Kp for entry COc1ccc(NC(=O)N2CCCCN3[C@H](CN(C)C)[C@H](c4ccc(C#Cc5ccccc5)cc4)[C@@H]3C2)cc1
Completion: 2.6

----------
- METHOD: in vivo
- Design: species or system mouse
- RUN_PARAMETERS: female, CD1, mouse, in vivo, po, 10 mg/kg/day, mouse, 10 mg/kg/day p.o., Day 8
MEASUREMENT_TYPE: Cmax (ng/mL)
Give bare numbers, in ng/mL.

Prompt: # return recorded Cmax for entry COc1ccc(NC(=O)N2CCCCN3[C@H](CN(C)C)[C@H](c4ccc(C#Cc5ccccc5)cc4)[C@@H]3C2)cc1 [BRD7929]
Completion: 207
